assay: AUCinfinity in BALB/c mouse infected with Influenza A A/WSN/33 (H1N1) virus at 50 mg/kg, po measured after 24 hrs by LC-MS analysis; type: ADME, organism-based; set-up: time 24 hrs, dose 50 mg/kg, route po; details: in vivo
Quantity Kind: AUC(0-inf) (ng·h/mL)
Answer with a number only, understood to be in ng·h/mL.

Problem: Recorded AUC(0-inf) for `Cc1ncsc1-c1ccc(CNC(=O)[C@@H]2CCCN2C(=O)[C@@H](NC(=O)CCOCCOCCOCCNC(=O)[C@]23CCC(C)(C)C[C@H]2C2=CC[C@@H]4[C@@]5(C)CC[C@H](O)C(C)(C)[C@@H]5CC[C@@]4(C)[C@]2(C)CC3)C(C)(C)C)cc1` , please?
Solution: 2550

###

assay: MRT in BALB/c mouse infected with Influenza A A/WSN/33 (H1N1) virus at 10 mg/kg, iv measured after 24 hrs by LC-MS analysis; type: ADME, organism-based; conditions: in vivo
Quantity Kind: MRT (min)
Answer with a number only, understood to be in min.

Problem: Recorded MRT for `Cc1ncsc1-c1ccc(CNC(=O)[C@@H]2CCCN2C(=O)[C@@H](NC(=O)CCOCCOCCOCCNC(=O)[C@]23CCC(C)(C)C[C@H]2C2=CC[C@@H]4[C@@]5(C)CC[C@H](O)C(C)(C)[C@@H]5CC[C@@]4(C)[C@]2(C)CC3)C(C)(C)C)cc1` , please?
Solution: 58.8

###

tested on: HEK-293T; assay: Cytotoxicity against HEK293T cells assessed as reduction in cell viability at 50 uM incubated for 36 hrs by Celltiter-Glo assay; format: toxicity, cell-based; conditions: human
Quantity Kind: Activity

INSERT INTO results (smiles_text, quantity_kind, result) VALUES
  ('Cc1ncsc1-c1ccc(CNC(=O)[C@@H]2CCCN2C(=O)[C@@H](NC(=O)CCOCCOCCOCCNC(=O)[C@]23CCC(C)(C)C[C@H]2C2=CC[C@@H]4[C@@]5(C)CC[C@H](O)C(C)(C)[C@@H]5CC[C@@]4(C)[C@]2(C)CC3)C(C)(C)C)cc1', 'Activity', '85%'),
  ('Cc1ncsc1-c1ccc(CNC(=O)[C@@H]2C[C@@H](O)CN2C(=O)[C@@H](NC(=O)CCOCCOCCOCCOCCOCCOCCOCCOCCOCCOCCNC(=O)[C@]23CCC(C)(C)C[C@H]2C2=CC[C@@H]4[C@@]5(C)CC[C@H](O)C(C)(C)[C@@H]5CC[C@@]4(C)[C@]2(C)CC3)C(C)(C)C)cc1', 'Activity', 'Toxic'),
  ('Cc1ncsc1-c1ccc(CNC(=O)[C@@H]2C[C@@H](O)CN2C(=O)[C@@H](NC(=O)CCOCCOCCOCCOCCOCCNC(=O)[C@]23CCC(C)(C)C[C@H]2C2=CC[C@@H]4[C@@]5(C)CC[C@H](O)C(C)(C)[C@@H]5CC[C@@]4(C)[C@]2(C)CC3)C(C)(C)C)cc1', 'Activity', 'Toxic'),
  ('Cc1ncsc1-c1ccc(CNC(=O)[C@@H]2C[C@@H](O)CN2C(=O)[C@@H](NC(=O)CCOCCOCCOCCOCCOCCOCCOCCNC(=O)[C@]23CCC(C)(C)C[C@H]2C2=CC[C@@H]4[C@@]5(C)CC[C@H](O)C(C)(C)[C@@H]5CC[C@@]4(C)[C@]2(C)CC3)C(C)(C)C)cc1', 'Activity', 'Toxic');
